# credit: ChEMBL document CHEMBL4033712

test system: HT-29; assay: Growth inhibition of human HT-29 cells incubated for 48 hrs by sulforhodamine B assay; format: functional; conditions: HT-29, 48 h
# GI50 per entry

# Molecule, GI50, µM
rows = [
    ("C=C1CC[C@@H]2[C@](C)(COC(C)=O)[C@H](OC(C)=O)CC[C@@]2(C)[C@H]1CC(Nc1ccc(S(=O)(=O)Nc2nccs2)cc1)C1=CCOC1=O (stereo not given in full)", 2.17),
    ("C=C1CC[C@@H]2[C@](C)(COC(C)=O)[C@H](OC(C)=O)CC[C@@]2(C)[C@H]1CC(Nc1ccc(S(=O)(=O)Nc2ncccn2)cc1)C1=CCOC1=O (stereo not given in full)", 1.03),
    ("C=C1CC[C@@H]2[C@](C)(COC(C)=O)[C@H](OC(C)=O)CC[C@@]2(C)[C@H]1CC(Nc1ccc(S(=O)(=O)Nc2cc(C)on2)cc1)C1=CCOC1=O (stereo not given in full)", 1.58),
    ("C=C1CC[C@@H]2[C@](C)(COC(C)=O)[C@H](OC(C)=O)CC[C@@]2(C)[C@H]1CC(Nc1ccc(S(=O)(=O)Nc2ccc(Cl)nn2)cc1)C1=CCOC1=O (stereo not given in full)", 1.18),
    ("C=C1CC[C@@H]2[C@](C)(COC(C)=O)[C@H](OC(C)=O)CC[C@@]2(C)[C@H]1CC(Nc1ccc(S(=O)(=O)Nc2nccc(C)n2)cc1)C1=CCOC1=O (stereo not given in full)", 2.02),
]

* * *

# GI50 per entry
test system: UACC-257; assay: Growth inhibition of human UACC257 cells incubated for 48 hrs by sulforhodamine B assay; format: functional; details: UACC-257, 48 h

# Compound, GI50, µM
data = [
    ("C=C1CC[C@@H]2[C@](C)(COC(C)=O)[C@H](OC(C)=O)CC[C@@]2(C)[C@H]1CC(Nc1ccc(S(=O)(=O)Nc2nccc(C)n2)cc1)C1=CCOC1=O (stereo not given in full)", 4.8),
    ("C=C1CC[C@@H]2[C@](C)(COC(C)=O)[C@H](OC(C)=O)CC[C@@]2(C)[C@H]1CC(Nc1ccc(S(=O)(=O)Nc2ccc(Cl)nn2)cc1)C1=CCOC1=O (stereo not given in full)", 1.67),
    ("C=C1CC[C@@H]2[C@](C)(COC(C)=O)[C@H](OC(C)=O)CC[C@@]2(C)[C@H]1CC(Nc1ccc(S(=O)(=O)Nc2ncccn2)cc1)C1=CCOC1=O (stereo not given in full)", 2.34),
    ("C=C1CC[C@@H]2[C@](C)(COC(C)=O)[C@H](OC(C)=O)CC[C@@]2(C)[C@H]1CC(Nc1ccc(S(=O)(=O)Nc2cc(C)on2)cc1)C1=CCOC1=O (stereo not given in full)", 2.95),
    ("C=C1CC[C@@H]2[C@](C)(COC(C)=O)[C@H](OC(C)=O)CC[C@@]2(C)[C@H]1CC(Nc1ccc(S(=O)(=O)Nc2nccs2)cc1)C1=CCOC1=O (stereo not given in full)", 2.55),
]

* * *

tested on: OVCAR-8; experiment: Anticancer activity against human OVCAR8 cells assessed as cell growth at 10 uM after 48 hrs by sulforhodamine B assay relative to control; type: functional; settings: OVCAR-8, 48 h, read-out: Activity
Property: growth at 10 µM (%)

# Compound, Property, Reported Measurement
records = [
    ("C=C1CC[C@@H]2[C@](C)(COC(C)=O)[C@H](OC(C)=O)CC[C@@]2(C)[C@H]1CC(Nc1ccc(S(=O)(=O)Nc2ncccn2)cc1)C1=CCOC1=O (stereo partly drawn)", "growth at 10 µM", 3.81),
    ("C=C1CC[C@@H]2[C@](C)(COC(C)=O)[C@H](OC(C)=O)CC[C@@]2(C)[C@H]1CC(Nc1ccc(S(=O)(=O)Nc2nccc(C)n2)cc1)C1=CCOC1=O (stereo partly drawn)", "growth at 10 µM", 10.5),
    ("C=C1CC[C@@H]2[C@](C)(COC(C)=O)[C@H](OC(C)=O)CC[C@@]2(C)[C@H]1CC(Nc1ccc(S(=O)(=O)Nc2nc(C)cc(C)n2)cc1)C1=CCOC1=O (stereo partly drawn)", "growth at 10 µM", 62),
]
